Values compiled from paper PMC8343220.

Affinity selectivity ratio α1B vs α1D values, listed per item
experimental_system: human α1D‐adrenoceptor (full length) (Homo sapiens)
Construct: human α1D‐adrenoceptor (full length) were used; expressed in transfected cells; host or cells: CHO-K1
Sequence (P25100 whole entry): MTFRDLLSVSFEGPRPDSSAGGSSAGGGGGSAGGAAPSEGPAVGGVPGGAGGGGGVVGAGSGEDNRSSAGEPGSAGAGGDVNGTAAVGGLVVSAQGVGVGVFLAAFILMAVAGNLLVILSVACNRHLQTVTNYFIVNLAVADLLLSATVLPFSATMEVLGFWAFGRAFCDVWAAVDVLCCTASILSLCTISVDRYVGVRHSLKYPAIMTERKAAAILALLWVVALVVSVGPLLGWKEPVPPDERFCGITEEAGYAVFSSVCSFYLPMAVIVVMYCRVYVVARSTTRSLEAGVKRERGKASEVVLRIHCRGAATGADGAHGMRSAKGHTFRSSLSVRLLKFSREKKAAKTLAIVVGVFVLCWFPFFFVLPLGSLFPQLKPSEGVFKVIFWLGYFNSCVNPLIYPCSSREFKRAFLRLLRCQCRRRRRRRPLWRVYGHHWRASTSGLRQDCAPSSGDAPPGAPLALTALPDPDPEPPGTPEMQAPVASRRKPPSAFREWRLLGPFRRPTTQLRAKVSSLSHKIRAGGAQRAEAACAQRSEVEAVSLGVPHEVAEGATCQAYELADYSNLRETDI
assay_procedure: ^3H‐prazosin whole‐cell radioligand binding, CHO‐α1D cells
measurement_kind: Affinity selectivity ratio α1B vs α1D

> print(dat)
                                    compound                       measurement.kind      result
 1         Cc1cccc(C)c1N=C1NCCCS1 [Xylazine]  Affinity selectivity ratio α1B vs α1D   21.9 fold
 2  Cc1cccc([C@H](C)c2cnc[nH]2)c1C [Dexmedetomidine]  Affinity selectivity ratio α1B vs α1D    9.3 fold
 3  CCC1(C2=NCCN2)Cc2ccccc2O1 (centres unmarked) [Eforaxan]  Affinity selectivity ratio α1B vs α1D    5.0 fold
 4  CC(N)C(O)c1ccc(O)c(O)c1 (stereo not drawn) [α‐Methylnorepinephrine]  Affinity selectivity ratio α1B vs α1D  >69.2 fold
 5  CC(C)(C)NCC(O)COc1cccc2[nH]c(=O)[nH]c12 (centres unmarked) [CGP 12177]  Affinity selectivity ratio α1B vs α1D   >1.6 fold
 6  O=C1CCC(=O)N1C[C@H]1CC[C@H]2CN(c3ncccn3)CCN2C1 [Sunepitrion]  Affinity selectivity ratio α1B vs α1D    4.8 fold
 7     Brc1c(NC2=NCCN2)ccc2nccnc12 [UK14304]  Affinity selectivity ratio α1B vs α1D    3.0 fold
 8  Cc1cccc(C(C)c2cnc[nH]2)c1C (centres unmarked) [Medetomidine]  Affinity selectivity ratio α1B vs α1D    6.8 fold
 9  OCc1cc(C(O)CNCCCCCCOCCCCc2ccccc2)ccc1O (centres unmarked) [Salmeterol]  Affinity selectivity ratio α1B vs α1D    4.4 fold
10            C=CCN1CCc2nc(N)sc2CC1 [BHT920]  Affinity selectivity ratio α1B vs α1D    5.8 fold
11  Brc1c(NC2=NCCN2)ccc2nccnc12 [Brimonidine]  Affinity selectivity ratio α1B vs α1D    3.9 fold
